# pIC50 listing for each entry below
Test system: Mycolicibacterium smegmatis
Experiment: Antimycobacterial activity against Mycobacterium smegmatis grown in nitrogen -limited broth medium assessed as growth inhibition in mid-logarithmic phase by GFP-based fluorescence assay
Format: functional, organism-based
Settings: Mycolicibacterium smegmatis
FYI, pIC50 means -log10 of a concentration in mol per litre.

Q. Determine reported pIC50 for Clc1ccc(C(c2ccc(Cl)cc2)[n+]2ccn(CC(OCc3ccc(Cl)cc3Cl)c3ccc(Cl)cc3Cl)c2)cc1 (stereo not given) [CALMIDAZOLIUM CHLORIDE] ; test system: Mycolicibacterium smegmatis.
A. 5.15

Q. Determine reported pIC50 for CC1COc2c(N3CCN(C)CC3)c(F)cc3c(=O)c(C(=O)O)cn1c23 (stereo not given) [OFLOXACIN] ; test system: Mycolicibacterium smegmatis.
A. 5.76

Q. Determine reported pIC50 for CC(=O)[C@]1(O)Cc2c(O)c3c(c(O)c2[C@@H](O[C@H]2C[C@H](N)[C@H](O)[C@H](C)O2)C1)C(=O)c1ccccc1C3=O [IDARUBICIN] ; test system: Mycolicibacterium smegmatis.
A. 5.29

Q. Determine reported pIC50 for CC(C)(C)c1ccc(S(=O)(=O)/C=C/C#N)cc1 [BAY-11-7085] ; test system: Mycolicibacterium smegmatis.
A. 5.21

Q. Determine reported pIC50 for CCn1cc(C(=O)O)c(=O)c2cc(F)c(N3CCNC(C)C3)c(F)c21 (stereo not given) [LOMEFLOXACIN] ; test system: Mycolicibacterium smegmatis.
A. 5.84

More entries:
Q. Determine reported pIC50 for O=C(Nc1ccc([N+](=O)[O-])cc1Cl)c1cc(Cl)ccc1O [NICLOSAMIDE] ; test system: Mycolicibacterium smegmatis.
A. 5.33

Q. Determine reported pIC50 for O=S1(=O)N(CCN2CC=C(c3c[nH]c4cc(F)ccc34)CC2)c2cccc3c2N1CCC3 ; test system: Mycolicibacterium smegmatis.
A. 4.65

Q. Determine reported pIC50 for CN(C)C(CCCCC[N+](C)(C)CCCN1C(=O)c2cccc3cccc(c23)C1=O)CCCN1C(=O)c2cccc3cccc(c23)C1=O (stereo not given) ; test system: Mycolicibacterium smegmatis.
A. 5.22

Q. Determine reported pIC50 for CN1CCN(CCCN2c3ccccc3Sc3ccc(C(F)(F)F)cc32)CC1 [TRIFLUOPERAZINE] ; test system: Mycolicibacterium smegmatis.
A. 5.50

Q. Determine reported pIC50 for CN(C)c1ccc(O)c2c1C[C@H]1C[C@H]3[C@H](N(C)C)C(O)=C(C(N)=O)C(=O)[C@@]3(O)C(O)=C1C2=O [MINOCYCLINE] ; test system: Mycolicibacterium smegmatis.
A. 5.14

---

Test system: Mycolicibacterium smegmatis
Assay: Antimycobacterial activity against Mycobacterium smegmatis grown in carbon-limited broth medium assessed as growth inhibition in mid-logarithmic phase by GFP-based fluorescence assay
Assay type: functional, organism-based
Settings: Mycolicibacterium smegmatis
# pIC50 listing for each entry below
FYI, pIC50 means -log10 of a concentration in mol per litre.

Q. Determine reported pIC50 for CN[C@H](CC(C)C)C(=O)N[C@H]1C(=O)N[C@@H](CC(N)=O)C(=O)N[C@H]2C(=O)N[C@H]3C(=O)N[C@H](C(=O)N[C@H](C(=O)O)c4cc(O)cc(O)c4-c4cc3ccc4O)[C@H](O)c3ccc(c(Cl)c3)Oc3cc2cc(c3O[C@@H]2O[C@H](CO)[C@@H](O)[C@H](O)[C@H]2O[C@H]2C[C@](C)(N)[C@H](O)[C@H](C)O2)Oc2ccc(cc2Cl)[C@H]1O ; test system: Mycolicibacterium smegmatis.
A. 4.78

Switching to the query record.
Q. Determine reported pIC50 for C[Se]C[C@H](N)C(=O)O ; test system: Mycolicibacterium smegmatis.
A. 5.66
